# Target entity: UniProt:O00329
# Sequence (O00329 whole entry, looked up): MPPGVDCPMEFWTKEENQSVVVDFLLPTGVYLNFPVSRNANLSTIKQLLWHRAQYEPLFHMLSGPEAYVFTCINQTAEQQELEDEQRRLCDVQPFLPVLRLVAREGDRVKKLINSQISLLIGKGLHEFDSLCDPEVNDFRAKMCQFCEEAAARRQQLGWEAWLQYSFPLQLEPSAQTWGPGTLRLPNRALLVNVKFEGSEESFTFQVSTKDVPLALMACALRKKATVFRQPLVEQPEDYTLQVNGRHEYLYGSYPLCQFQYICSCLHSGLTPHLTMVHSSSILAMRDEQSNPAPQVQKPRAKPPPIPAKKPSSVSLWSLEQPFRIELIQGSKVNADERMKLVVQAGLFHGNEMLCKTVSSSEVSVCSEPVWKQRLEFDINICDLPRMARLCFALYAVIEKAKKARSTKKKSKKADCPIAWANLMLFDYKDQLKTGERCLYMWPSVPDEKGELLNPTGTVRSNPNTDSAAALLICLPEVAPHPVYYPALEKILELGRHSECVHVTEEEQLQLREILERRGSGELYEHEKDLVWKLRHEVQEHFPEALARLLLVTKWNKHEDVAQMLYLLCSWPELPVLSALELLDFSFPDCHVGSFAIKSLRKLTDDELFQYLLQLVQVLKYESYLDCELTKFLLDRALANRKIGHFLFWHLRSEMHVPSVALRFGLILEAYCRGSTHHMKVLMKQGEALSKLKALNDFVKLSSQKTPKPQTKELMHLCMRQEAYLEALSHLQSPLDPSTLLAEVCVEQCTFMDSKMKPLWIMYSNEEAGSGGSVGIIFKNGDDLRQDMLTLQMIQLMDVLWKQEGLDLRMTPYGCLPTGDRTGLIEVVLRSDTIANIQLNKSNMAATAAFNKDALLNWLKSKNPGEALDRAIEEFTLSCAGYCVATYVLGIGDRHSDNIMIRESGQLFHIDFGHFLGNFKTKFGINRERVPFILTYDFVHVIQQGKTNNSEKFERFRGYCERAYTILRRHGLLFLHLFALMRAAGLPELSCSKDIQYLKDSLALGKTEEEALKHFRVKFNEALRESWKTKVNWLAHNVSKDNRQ
# Test name: Enzyme Assay
Assay readout: log10 of IC50 (log10 of the value in µM)
Scale: decimal log of IC50, IC50 in µM.

input: Fill in the blank: the reported log10 of IC50 of `CO[C@H]1C[C@@H](c2nc3cccc(C(F)(F)F)c3c(=O)n2-c2ccccc2)N(c2ncnc(N)c2C#N)C1` is ____.
output: -1.74

input: Looking for the measured log10 of IC50 of `Cc1c(F)ccc2nc([C@@H]3C[C@H](O)CN3c3ncnc(N)c3C#N)n(-c3ccccc3)c(=O)c12` , can you help?
output: -2.00

input: I am curious: what log10 of IC50 value has been reported for `Nc1nc(N2CCC[C@H]2c2nc3cccc(C(F)(F)F)c3c(=O)n2-c2ccccc2)c2nccn2n1` ?
output: -1.17

input: Dear colleague, I am looking for the recorded log10 of IC50 of the following molecule: `Nc1nc(N2C[C@@H](O)C[C@H]2c2nc3cccc(Cl)c3c(=O)n2-c2ccccc2)c2nccn2n1`
output: -1.82

input: Please give the measured log10 of IC50 for this molecule: `N#Cc1c(N)ncnc1N1CCC[C@H]1c1nc2cccc(Cl)c2c(=O)n1-c1cccnc1`
output: -1.85

input: Given `Cc1nc(N)nc(N2C[C@@H](O)C[C@H]2c2nc3cccc(F)c3c(=O)n2-c2ccccc2)c1C#N` , state its recorded log10 of IC50.
output: -1.74

input: What value of log10 of IC50 has been recorded for this entry: `N#Cc1c(N)ncnc1N1CCC[C@H]1c1nc2cccc(Cl)c2c(=O)n1N1CCCCC1`
output: -0.92

input: log10 of IC50 lookup needed for `CS(=O)(=O)c1c(F)ccc2nc([C@@H]3CCCN3c3ncnc(N)c3C#N)n(-c3ccccc3)c(=O)c12` , thanks.
output: -1.08

---

Could you please report measured IC50 for the items listed next?
# Target entity: UniProt:P48736
# Sequence (P48736 whole entry, looked up): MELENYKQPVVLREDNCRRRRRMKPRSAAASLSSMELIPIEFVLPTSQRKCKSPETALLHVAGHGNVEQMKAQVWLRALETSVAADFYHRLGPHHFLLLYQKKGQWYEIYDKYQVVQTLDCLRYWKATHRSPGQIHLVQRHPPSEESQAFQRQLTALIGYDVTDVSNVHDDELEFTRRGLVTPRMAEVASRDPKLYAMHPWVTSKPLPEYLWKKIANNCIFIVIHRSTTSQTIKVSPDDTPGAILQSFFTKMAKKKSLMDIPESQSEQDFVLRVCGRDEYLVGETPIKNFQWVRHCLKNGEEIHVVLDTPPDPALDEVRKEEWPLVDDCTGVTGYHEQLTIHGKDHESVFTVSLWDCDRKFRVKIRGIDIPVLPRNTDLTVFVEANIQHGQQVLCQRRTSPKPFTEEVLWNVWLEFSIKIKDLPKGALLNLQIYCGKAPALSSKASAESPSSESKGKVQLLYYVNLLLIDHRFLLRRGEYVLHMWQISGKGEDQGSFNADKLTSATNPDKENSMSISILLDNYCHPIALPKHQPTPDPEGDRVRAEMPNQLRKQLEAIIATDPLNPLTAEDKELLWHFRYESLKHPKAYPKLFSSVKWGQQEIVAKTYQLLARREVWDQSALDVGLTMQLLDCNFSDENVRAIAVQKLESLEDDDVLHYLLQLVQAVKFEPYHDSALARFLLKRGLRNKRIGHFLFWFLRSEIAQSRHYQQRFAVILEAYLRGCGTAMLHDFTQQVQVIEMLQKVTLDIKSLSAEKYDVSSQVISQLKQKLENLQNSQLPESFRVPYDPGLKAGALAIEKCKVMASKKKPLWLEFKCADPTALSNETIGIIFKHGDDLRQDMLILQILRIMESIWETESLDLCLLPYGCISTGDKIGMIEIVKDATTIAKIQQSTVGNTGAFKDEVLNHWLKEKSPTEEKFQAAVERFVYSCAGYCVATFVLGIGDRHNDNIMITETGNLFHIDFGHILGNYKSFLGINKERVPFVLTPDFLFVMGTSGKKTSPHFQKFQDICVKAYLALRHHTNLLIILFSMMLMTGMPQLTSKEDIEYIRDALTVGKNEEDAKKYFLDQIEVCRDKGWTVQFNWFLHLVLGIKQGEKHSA
# Test name: Enzyme Assay
Provide only the numeric value, understood in µM.

input: What does the record list as IC50 for `CC1(n2c([C@@H]3CCCN3c3ncnc(N)c3C#N)nc3cccc(Cl)c3c2=O)CC1` ?
output: 0.019

input: // lookup IC50 for `O=c1c2c(Cl)cccc2nc([C@@H]2CSCN2c2ncnc3[nH]cnc23)n1-c1ccccc1`
output: 0.202

input: Find the recorded IC50 belonging to `Nc1nc(N2CCC[C@H]2c2nc3cccc(C(F)(F)F)c3c(=O)n2-c2cncc(F)c2)c2nc[nH]c2n1` and report it.
output: 0.32

input: Quick one: IC50 for `Nc1nc(N2CCC[C@H]2c2nc3cccc(Cl)c3c(=O)n2N2CCCCC2)c2nc[nH]c2n1` ?
output: 0.13

input: So what does the record say about IC50 for `Nc1nc(N2CCC[C@H]2c2nc3cccc(Cl)c3c(=O)n2-c2cccnc2)c2nc[nH]c2n1` ?
output: 0.024

input: What value of measured IC50 is listed for `COc1ccc(-n2c([C@@H]3CCCN3c3ncnc4[nH]cnc34)nc3cccc(Cl)c3c2=O)cn1` ?
output: 1.9

input: Please look up its IC50: `Cc1nc(N)nc(N2C[C@@H](O)C[C@H]2c2nc3cccc(C(F)(F)F)c3c(=O)n2-c2cccnc2)c1C#N`
output: 0.22

input: # get_value(readout='IC50', item= `Cc1nc(N)nc(N2CCC[C@H]2c2nc3cccc(C(F)(F)F)c3c(=O)n2-c2cncc(F)c2)c1C#N` )
output: 0.24

input: Look up IC50 for this molecule: `Cc1nc(N)nc(N2CCC[C@H]2c2nc3cc(F)cc(F)c3c(=O)n2-c2ccccc2)c1C#N`
output: 3.1

input: Field request: IC50 | item: `Cc1nc(N)nc(N2C[C@@H](O)C[C@H]2c2nc3cccc(F)c3c(=O)n2-c2ccccc2)c1C#N`
output: 0.09

input: Entry `N#Cc1c(N)ncnc1N1C[C@@H](O)C[C@H]1c1nc2cccc(F)c2c(=O)n1-c1ccccc1` has what IC50?
output: 2.1

input: For the molecule `Cc1nc(N)nc(N2CCC[C@H]2c2nc3cccc(Cl)c3c(=O)n2-c2ccccc2)c1C#N` , what IC50 is on record?
output: 0.022

input: State the recorded IC50 for this entry: `Cc1nc(N)nc(N2C[C@@H](O)C[C@H]2c2nc3ccc(F)c(F)c3c(=O)n2-c2ccccc2)c1C#N`
output: 0.097

input: Item under review: `N#Cc1c(N)ncnc1N1C[C@@H](O)C[C@H]1c1nc2ccc(F)c(Cl)c2c(=O)n1-c1ccccc1` . Reported IC50?
output: 0.99

input: What value of IC50 has been recorded for this entry: `Cc1ccc(-n2c([C@@H]3CSCN3c3ncnc4[nH]cnc34)nc3cccc(Cl)c3c2=O)s1`
output: 0.82

input: Recorded IC50 of `Nc1nc(N2C[C@@H](O)C[C@H]2c2nc3cccc(Cl)c3c(=O)n2-c2ccccc2)c2nccn2n1` , please.
output: 0.031

input: Recorded IC50 for `O=c1c2c(Cl)cccc2nc([C@@H]2CCCN2c2ncnc3[nH]cnc23)n1C1CCOCC1` , please?
output: 0.295

input: Can you look up the measured IC50 of `Nc1nc(N2CCC[C@H]2c2nc3cccc(Cl)c3c(=O)n2N2CCOCC2)c2nc[nH]c2n1` for me?
output: 0.063

input: Any idea what its IC50 is? The molecule is `N#Cc1c(N)ncnc1N1CCC[C@H]1c1nc2ccc(F)c(F)c2c(=O)n1-c1ccccc1`
output: 2.3

input: Sample `Cc1nc(N)nc(N2C[C@@H](F)C[C@H]2c2nc3cccc(C(F)(F)F)c3c(=O)n2-c2ccccc2)c1C#N` — what was its IC50?
output: 0.047

input: Look at this molecule and give its reported IC50. `Cn1cnc2c(N3CCC[C@H]3c3nc4cccc(Cl)c4c(=O)n3N3CCOCC3)nc(N)nc21`
output: 0.505

input: Please report the recorded IC50 for `N#Cc1c(N)ncnc1N1CCC[C@H]1c1nc2cccc(OC(F)F)c2c(=O)n1-c1ccccc1` .
output: 0.59

input: I would be grateful if you could share the reported IC50 for `CO[C@H]1C[C@@H](c2nc3cccc(Cl)c3c(=O)n2N2CCOCC2)N(c2nc(N)nc(C)c2C#N)C1` .
output: 0.053
